Sourced from patent US5358951A

- Tested on: vasopressor response of angiotensin II
- METHOD_NOTES: AII Challenge: antagonism of angiotensin II vasopressor response;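 as to Response Average Change: post-dose Angiotensin II-evoked rise in systolic blood pressure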
- Type: in vivo
- SETUP_CONDITIONS: 1 mg/kg i.v.; AII 0.1 mcg/kg IV; 90 min post dose
Response Average Change values for the molecules below.
VALUE_KIND: Response Average Change (mmHg)

# MOLECULE, VALUE_KIND, ENDPOINT_UNIT, EXPERIMENTAL_VALUE
records = [
    ("CCCCc1nc2ccc([C@]3(CC)C[C@@H]4CCCN4O3)cc2c(=O)n1Cc1ccc(-c2ccccc2-c2nnn[nH]2)cc1 (relative stereo)", "Response Average Change", "mmHg", 32.5),
    ("CCCCc1nc2ccc(C3(CO)CC4CCCN4O3)cc2c(=O)n1Cc1ccc(-c2ccccc2-c2nnn[nH]2)cc1 (stereo not drawn)", "Response Average Change", "mmHg", 22.5),
    ("CCCCc1nc2ccc(C3(C(=O)OC)CC4CCCN4O3)cc2c(=O)n1Cc1ccc(-c2ccccc2-c2nnn[nH]2)cc1 (mixture of isomers)", "Response Average Change", "mmHg", 15),
]

---

- System: vasopressor response of angiotensin II
- METHOD_NOTES: AII Challenge: antagonism of angiotensin II vasopressor response
- Assay type: in vivo
- SETUP_CONDITIONS: Rattus norvegicus, iv, 3 h, 3 mg/kg I.V.; AII 0.05 mcg/kg IV; 180 min post dose
// 0 strictly below 40% in inhibition in vivo at 3 mg/kg; 1 otherwise

# COMPOUND, CLASS_ASSIGNMENT
data = [
    ("CCCCc1nc2ccc([C@@H]3C[C@H]4CCC(C)(C)N4O3)cc2c(=O)n1Cc1ccc(-c2ccccc2-c2nnn[nH]2)cc1 (relative stereo)", 1),
    ("CCCCc1nc2ccc([C@H]3C[C@]4(C)CCCCN4O3)cc2c(=O)n1Cc1ccc(-c2ccccc2-c2nnn[nH]2)cc1 (relative stereo)", 1),
    ("CCCCc1nc2ccc([C@@H]3C[C@H]4c5ccccc5CCN4O3)cc2c(=O)n1Cc1ccc(-c2ccccc2-c2nnn[nH]2)cc1 (relative stereo)", 1),
    ("CCCCc1nc2ccc(C3(C)CC4c5ccccc5CCN4O3)cc2c(=O)n1Cc1ccc(-c2ccccc2-c2nnn[nH]2)cc1 (centres unmarked)", 1),
    ("CCCCc1nc2ccc([C@@H]3C[C@H]4CCCN4O3)cc2c(=O)n1Cc1ccc(-c2ccccc2-c2nnn[nH]2)cc1 (racemic)", 0),
    ("CCCCc1nc2ccc([C@]3(C)C[C@@H]4CCC(C)(C)N4O3)cc2c(=O)n1Cc1ccc(-c2ccccc2-c2nnn[nH]2)cc1 (relative stereo)", 1),
    ("CCCCc1nc2ccc(C3ON4CCCC4C3C(=O)OCC)cc2c(=O)n1Cc1ccc(-c2ccccc2-c2nnn[nH]2)cc1 (centres unmarked)", 0),
]

---

- System: vasopressor response of angiotensin II
- METHOD_NOTES: AII Challenge: antagonism of angiotensin II vasopressor response;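 as to Response Average Change: post-dose Angiotensin II-evoked rise in systolic blood pressure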
- Assay type: in vivo
- SETUP_CONDITIONS: 5 mg/kg P.O.; AII 0.1 mcg/kg IV; 120 min post dose
Recorded Response Average Change, one value per entry.
VALUE_KIND: Response Average Change (mmHg)

# COMPOUND, TARGET_ENTITY, VALUE_KIND, EXPERIMENTAL_VALUE
measured = [
    ("CCCCc1nc2ccc(C3ON4CCCC4C3C(=O)OCC)cc2c(=O)n1Cc1ccc(-c2ccccc2-c2nnn[nH]2)cc1 (stereo not shown) [Example 62]", "vasopressor response of angiotensin II", "Response Average Change", 45),
    ("CCCCc1nc2ccc(C3(C)CC4c5ccccc5CCN4O3)cc2c(=O)n1Cc1ccc(-c2ccccc2-c2nnn[nH]2)cc1 (stereo not shown) [Example 64]", "vasopressor response of angiotensin II", "Response Average Change", 20),
    ("CCCCc1nc2ccc([C@@]3(C)C[C@@H]4CCC(C)(C)N4O3)cc2c(=O)n1Cc1ccc(-c2ccccc2-c2nnn[nH]2)cc1 (relative stereo) [Example 66]", "vasopressor response of angiotensin II", "Response Average Change", 7.5),
    ("CCCCc1nc2ccc([C@@H]3C[C@H]4CCCN4O3)cc2c(=O)n1Cc1ccc(-c2ccccc2-c2nnn[nH]2)cc1 (racemic) [Example 57]", "vasopressor response of angiotensin II", "Response Average Change", 25),
    ("CCCCc1nc2ccc([C@]3(C)C[C@@H]4CCCN4O3)cc2c(=O)n1Cc1ccc(-c2ccccc2-c2nnn[nH]2)cc1 (relative stereo) [Example 59]", "vasopressor response of angiotensin II", "Response Average Change", 17.5),
    ("CCCCc1nc2ccc([C@@H]3C[C@H]4c5ccccc5CCN4O3)cc2c(=O)n1Cc1ccc(-c2ccccc2-c2nnn[nH]2)cc1 (relative stereo) [Example 63]", "vasopressor response of angiotensin II", "Response Average Change", 32.5),
    ("CCCCc1nc2ccc([C@@H]3C[C@H]4CCC(C)(C)N4O3)cc2c(=O)n1Cc1ccc(-c2ccccc2-c2nnn[nH]2)cc1 (relative stereo) [Example 61]", "vasopressor response of angiotensin II", "Response Average Change", 30),
]
